Listing of recorded growth by entry.
Tested on: E. coli TESEC Mtb Alr
assay-explanation: growth (OD600 after 10 h); higher = more growth (less inhibition)
experimental-setup: arabinose 1000 nM; compound 0.1 mM; raw OD600 reference: median of DMSO wells 0.294, cell-free background 0.041
Reply briefly: the number, and no unit.

CN1CCN(C2=Nc3cc(Cl)ccc3Nc3ccccc32)CC1: 0.206
Nc1nc2[nH]cc(CCc3ccc(C(=O)N[C@@H](CCC(=O)O)C(=O)O)cc3)c2c(=O)[nH]1 [Pemetrexed disodium]: 0.303
Cc1onc(-c2ccccc2)c1-c1ccc(S(N)(=O)=O)cc1: 0.173

Proceeding to the next compound to report its growth.
The compound CC(c1cc2ccccc2s1)N(O)C(N)=O (centres undefined) , when measured on E. coli TESEC Mtb Alr, yielded growth of 0.295
